Test system: Yap1 mRNA
Test: Inhibition of human Yap1 mRNA in epidermoid carcinoma A-431 xenograft tumors (Example 27)
Assay type: in vivo
Details: 50 mpk daily (5 doses), A-431 xenografts in NCr-Foxn1nu mice, 6-8 hours post final dose, relative to PBS
Strand notation (5' to 3'): a small letter for the sugar, then the base; units joined by * are phosphorothioate-linked, units joined directly phosphodiester-linked; [ ] holds rarer units or linkages, { } end groups; capitals alone tell only the bases. k = constrained ethyl (cEt); [5mC] = 5-methylcytosine; d = 2'-deoxy (DNA)
Assign Yap1 mRNA in tumors, % control to each entry below.
Answers are plain numbers, in % control.

Record Yap1 mRNA in tumors, % control per entry; entries follow.
1. 715487 (kA*kT*kT*dA*d[5mC]*dT*dT*d[5mC]*dA*dT*dA*dG*d[5mC]*kT*kT*kA) [compound 715487]
2. 1198623 (CTAAGTAAGGTTTCCC; modified gapmer, further chemistry not given here) [compound 1198623]
3. 1198728 (TATTAGAGTATGTGGC; modified gapmer, further chemistry not given here) [compound 1198728]

OUT:
[57, 36, 39]
